# assay_comment: Cytotoxicity against human CEM cells after 2 to 4 days by MTT assay
# Type: cell-based
# condition_label: CEM cells (CCRF-CEM)
readout: CC50 (µM)
Your answer is read as µM, so omit the unit and give the number.

Given the entry Cc1cn([C@H]2C[C@H](N=[N+]=[N-])[C@@H](CO)O2)c(=O)[nH]c1=O , report its measured CC50. 86.2

----------
# Test system: beta-actin DNA
# assay_comment: Mitochondrial toxicity in human HepG2 cells assessed as percent inhibition of beta-actin DNA at 100 uM after 14 days by real-time PCR
# Type: cell-based
readout: inhibition at 336 h, 100 µM (%)
Answer with a number only, understood to be in %.

Fill in: inhibition at 336 h, 100 µM of Nc1ccn([C@@H]2CS[C@H](CO)O2)c(=O)n1 is ___ 94.3

----------
# assay_comment: Cytotoxicity against human HeLa P4/R5 cells
readout: CC50

Please report the recorded CC50 for Cc1cn([C@H]2C[C@H](N=[N+]=[N-])[C@@H](CO)O2)c(=O)[nH]c1=O [ZIDOVUDINE] . > 270 µM

----------
Measured Activity by item
# tested_target: Human immunodeficiency virus type 1 reverse transcriptase (Human immunodeficiency virus 1)
# assay_comment: Activity at HIV1 reverse transcriptase measured after 30 mins
Give just the numeric value; s⁻¹ need not be written.

Which Activity value is on record for Nc1ncnc2c1ncn2[C@H]1CC[C@@H](COP(=O)(O)OP(=O)(O)OP(=O)(O)O)O1 [DDA-TRIPHOSPHATE] ? 5.4

Now consider Cc1cn([C@H]2C[C@H](O)[C@@H](COP(=O)(O)OP(=O)(O)OP(=O)(O)O)O2)c(=O)[nH]c1=O [DEOXYTHYMIDINE_TRIPHOSPHATE] and answer again. 9.2

Also need Nc1ccn([C@H]2CC[C@@H](COP(=O)(O)OP(=O)(O)OP(=O)(O)O)O2)c(=O)n1 , thanks. 0.4

----------
# tested_target: Human immunodeficiency virus type 1 reverse transcriptase (Human immunodeficiency virus 1, UniProt Q72547)
Listed next: entries and their corresponding pKd.
A value of pKd is the negative decimal logarithm of a concentration given in moles per litre.

>>> df
                                   molecule  quantitative_result
0  [N-]=[N+]=N[C@H]1C[C@H](n2cnc3c(N)ncnc32)O[C@@H]1COP(=O)(O)OP(=O)(O)OP(=O)(O)O                 5.64
1  C[C@H](Cn1cnc2c(N)ncnc21)OCP(=O)(O)OP(=O)(O)OP(=O)(O)O                 5.37
2  Nc1ncnc2c1ncn2[C@H]1C[C@H](O)[C@@H](COP(=O)(O)OP(=O)(O)OP(=O)(O)O)O1                 5.49
3  Nc1ccn([C@H]2CC[C@@H](COP(=O)(O)OP(=O)(O)OP(=O)(O)O)O2)c(=O)n1                 5.57
4  Cc1cn([C@H]2C=C[C@@H](COP(=O)(O)OP(=O)(O)OP(=O)(O)O)O2)c(=O)[nH]c1=O [STAVUDINE TRIPHOSPHATE]                 5.57
5  Cc1cn([C@H]2C[C@H](O)[C@@H](COP(=O)(O)OP(=O)(O)OP(=O)(O)O)O2)c(=O)[nH]c1=O [DEOXYTHYMIDINE_TRIPHOSPHATE]                 5.66

So what does the record say about pKd for [N-]=[N+]=N[C@H]1C[C@H](n2cnc3c(=O)[nH]c(N)nc32)O[C@@H]1COP(=O)(O)OP(=O)(O)OP(=O)(O)O ? 5.55

----------
# Tested on: mitochondrial DNA
# assay_comment: Mitochondrial toxicity in human HepG2 cells assessed as percent inhibition of mitochondrial DNA at 100 uM after 14 days by real-time PCR
# Format: cell-based
readout: inhibition at 336 h, 100 µM (%)
Give your result in % as a bare value.

Looking for the measured inhibition at 336 h, 100 µM of Nc1ccn([C@@H]2CS[C@H](CO)O2)c(=O)n1 [LAMIVUDINE] , can you help? 100

----------
# tested_target: Human immunodeficiency virus type 1 reverse transcriptase (Human immunodeficiency virus 1, UniProt Q72547)
readout: pKd
Worth noting: pKd values are minus log10 of concentrations stated in mol/L.

compound	pKd
Nc1ncnc2c1ncn2[C@H]1CC[C@@H](COP(=O)(O)OP(=O)(O)OP(=O)(O)O)O1 [DDA-TRIPHOSPHATE]	5.28
Nc1nc2c(ncn2[C@H]2C[C@H](O)[C@@H](COP(=O)(O)OP(=O)(O)OP(=O)(O)O)O2)c(=O)[nH]1 [DEOXYGUANOSINE TRIPHOSPHATE]	5.38

Report pKd for Nc1nc(=O)c2ncn([C@H]3C=C[C@@H](COP(=O)(O)OP(=O)(O)OP(=O)(O)O)C3)c2[nH]1 (single isomer, unassigned) [CARBOVIR 5'-TRIPHOSPHATE, (-)-] please. 5.40

----------
// reported IC50 for each item listed
# Tested on: Human immunodeficiency virus 1
# assay_comment: Antiviral activity against HIV1 infected in human MT2 cells assessed as inhibition of viral replication
# Format: functional, organism-based
# condition_label: Human immunodeficiency virus 1, MT2
Where a name gives a salt, the structure may show the parent alone.
Give me the value, and tack the unit on after it.

Answered examples (5):
                                   compound   result
0       Nc1ccn([C@H]2CC[C@@H](CO)O2)c(=O)n1   130 nM
1    O=c1[nH]cnc2c1ncn2[C@H]1CC[C@@H](CO)O1   490 nM
2  Nc1nc(NC2CC2)c2ncn([C@H]3C=C[C@@H](CO)C3)c2n1 [ABACAVIR SULFATE]  4800 nM
3  CC(C)OC(=O)OCOP(=O)(CO[C@H](C)Cn1cnc2c(N)ncnc21)OCOC(=O)OC(C)C.O=C(O)/C=C/C(=O)O [TENOFOVIR DISOPROXIL FUMARATE]   540 nM
4      Nc1nc(=O)n([C@@H]2CS[C@H](CO)O2)cc1F    44 nM

Please give the measured IC50 for this compound: Cc1cn([C@H]2C=C[C@@H](CO)O2)c(=O)[nH]c1=O 1900 nM

Continue with Cc1cn([C@H]2C[C@H](N=[N+]=[N-])[C@@H](CO)O2)c(=O)[nH]c1=O 31 nM

Nc1ccn([C@@H]2CS[C@H](CO)O2)c(=O)n1 ? 600 nM

----------
# assay_comment: Cytotoxicity against human MT2 cells after 2 to 4 days by MTT assay
# Type: cell-based
readout: CC50
Write the numeric value and follow it with the unit.

Need CC50 of Cc1cn([C@H]2C[C@H](N=[N+]=[N-])[C@@H](CO)O2)c(=O)[nH]c1=O , thanks. 150 µM

----------
# assay_comment: Cytotoxicity against human PBMC after 2 to 4 days by MTT assay
# Assay type: cell-based
readout: CC50

I would be grateful if you could share the reported CC50 for Cc1cn([C@H]2C[C@H](N=[N+]=[N-])[C@@H](CO)O2)c(=O)[nH]c1=O [ZIDOVUDINE] . > 100 µM

----------
Overview of recorded pIC50 for various compounds
# Test system: Human immunodeficiency virus 1
# assay_comment: Antiviral activity against HIV1 harboring reverse transcriptase K65R mutant infected in human HeLa P4/R5 cells assessed as inhibition of viral replication
# Format: functional, organism-based
# condition_label: Human immunodeficiency virus 1, HeLa
Conceptually, pIC50 converts a concentration in mol/L into minus its log10.

Example entries and their recorded answers appear below.
                                   compound                   tested_target  quantitative_result
0  O=c1[nH]cnc2c1ncn2[C@H]1CC[C@@H](CO)O1 [DIDANOSINE]  Human immunodeficiency virus 1                 5.20
1  CC(C)OC(=O)OCOP(=O)(CO[C@H](C)Cn1cnc2c(N)ncnc21)OCOC(=O)OC(C)C.O=C(O)/C=C/C(=O)O [TENOFOVIR DISOPROXIL FUMARATE]  Human immunodeficiency virus 1                 4.94
2  Cc1cn([C@H]2C[C@H](N=[N+]=[N-])[C@@H](CO)O2)c(=O)[nH]c1=O [ZIDOVUDINE]  Human immunodeficiency virus 1                 6.68

Lab note: next compound to report on.
Consider the compound Nc1ccn([C@@H]2CS[C@H](CO)O2)c(=O)n1 [LAMIVUDINE] and give its measured pIC50. 4.22

----------
# Tested on: Human immunodeficiency virus 1
# assay_comment: Antiviral activity against HIV1 harboring reverse transcriptase D67N/K70R/T215F/K219Q mutant infected in human HeLa P4/R5 cells assessed as inhibition of viral replication
# Format: functional, organism-based
# condition_label: Human immunodeficiency virus 1, HeLa
readout: pIC50
Keep it numeric: pIC50 is minus log10 of the concentration in mol/L.

GET /values?readout=pIC50&item= Cc1cn([C@H]2C[C@H](N=[N+]=[N-])[C@@H](CO)O2)c(=O)[nH]c1=O [ZIDOVUDINE] 4.92
